This collection of values is drawn from patent US20230017045A1.

tested on: test plant species; assay: Post-emergent herbicidal activity test (greenhouse, foliar spray, visual growth reduction); format: in vivo; conditions: post-emergence, 336 h, IPOHE: ivy-leaf morning glory (Ipomoea hederacea), 140 g ai/ha, 14 days after application, read-out: Visual Growth Reduction (%) 14 Days After Application, IPOHE
Recorded pest or weed control at 140 g/ha, one value per entry.

Solved entries:
- molecule: "COC(=O)c1nc(-c2ccc(C(F)(F)F)c(Br)c2Cl)ccc1Cl [F140]"
  system_under_test: "test plant species"
  pest or weed control at 140 g/ha: "95 to 100%"
- molecule: "COC(=O)c1nc(-c2ccc(Br)cc2Cl)ccc1Cl [F27]"
  system_under_test: "test plant species"
  pest or weed control at 140 g/ha: "85 to 94%"
- molecule: "COC(=O)c1nc(-c2cc(Cl)c(C)cc2F)ccc1Cl [F271]"
  system_under_test: "test plant species"
  pest or weed control at 140 g/ha: "0 to 29%"

# pest or weed control at 140 g/ha of COC(=O)c1nc(-c2cc([N+](=O)[O-])c(C(F)(F)F)cc2Cl)c(F)cc1Cl [F322] = 95 to 100%

Reported pest or weed control at 140 g/ha for COC(=O)c1nc(-c2ccc(C(F)(F)F)cc2Cl)c(F)c(OC)c1Cl [F42] was 85 to 94%

Per the records, this molecule ( C#Cc1cc(-c2nc(C(=O)OC)c(Cl)cc2F)c(Cl)cc1C(F)(F)F [F251] ) has pest or weed control at 140 g/ha equal to 95 to 100%

// sample COC(=O)c1nc(-c2ccc(S(C)(=O)=O)cc2F)c(F)cc1Cl [F379] , its pest or weed control at 140 g/ha was 95 to 100%

The reported pest or weed control at 140 g/ha of the molecule COC(=O)c1nc(-c2ccc(C(F)(F)F)cc2F)c(Cl)cc1Cl [F102] was 60 to 74%

Record COC(=O)c1nc(-c2cc(Br)c(C(F)(F)F)cc2Cl)ccc1Cl [F151] . Reported pest or weed control at 140 g/ha: 95 to 100%

pest or weed control at 140 g/ha reading for COC(=O)c1nc(-c2cc3ncsc3cc2F)c(F)cc1Cl [F265] : 0 to 29%

Form: molecule = COC(=O)c1nc(-c2ccc(SC)cc2)c(F)cc1Cl [F248] ; pest or weed control at 140 g/ha = 30 to 44%

Value of pest or weed control at 140 g/ha reported for the molecule COC(=O)c1nc(-c2ccc(C(F)(F)F)cc2C)c(F)cc1Cl [F170] is 95 to 100%

The molecule listed as COC(=O)c1nc(-c2cc3nonc3cc2F)c(F)cc1Cl [F318] has a reported pest or weed control at 140 g/ha of 95 to 100%

Recorded pest or weed control at 140 g/ha (molecule COC(=O)c1nc(-c2ccc(C(F)F)c(F)c2OC)c(F)cc1Cl [F253] ): 95 to 100%

pest or weed control at 140 g/ha for C=Cc1ccc(-c2ccc(Cl)c(C(=O)OC)n2)c(Cl)c1 [F23] is 30 to 44%

Record COC(=O)c1nc(-c2cc3c(cc2F)OC(F)(F)O3)c(OC)cc1Cl [F335] . Reported pest or weed control at 140 g/ha: 0 to 29%
